- systemUnderTest: Phosphodiesterase (Trypanosoma cruzi)
- Sequence (Q53I59 whole entry): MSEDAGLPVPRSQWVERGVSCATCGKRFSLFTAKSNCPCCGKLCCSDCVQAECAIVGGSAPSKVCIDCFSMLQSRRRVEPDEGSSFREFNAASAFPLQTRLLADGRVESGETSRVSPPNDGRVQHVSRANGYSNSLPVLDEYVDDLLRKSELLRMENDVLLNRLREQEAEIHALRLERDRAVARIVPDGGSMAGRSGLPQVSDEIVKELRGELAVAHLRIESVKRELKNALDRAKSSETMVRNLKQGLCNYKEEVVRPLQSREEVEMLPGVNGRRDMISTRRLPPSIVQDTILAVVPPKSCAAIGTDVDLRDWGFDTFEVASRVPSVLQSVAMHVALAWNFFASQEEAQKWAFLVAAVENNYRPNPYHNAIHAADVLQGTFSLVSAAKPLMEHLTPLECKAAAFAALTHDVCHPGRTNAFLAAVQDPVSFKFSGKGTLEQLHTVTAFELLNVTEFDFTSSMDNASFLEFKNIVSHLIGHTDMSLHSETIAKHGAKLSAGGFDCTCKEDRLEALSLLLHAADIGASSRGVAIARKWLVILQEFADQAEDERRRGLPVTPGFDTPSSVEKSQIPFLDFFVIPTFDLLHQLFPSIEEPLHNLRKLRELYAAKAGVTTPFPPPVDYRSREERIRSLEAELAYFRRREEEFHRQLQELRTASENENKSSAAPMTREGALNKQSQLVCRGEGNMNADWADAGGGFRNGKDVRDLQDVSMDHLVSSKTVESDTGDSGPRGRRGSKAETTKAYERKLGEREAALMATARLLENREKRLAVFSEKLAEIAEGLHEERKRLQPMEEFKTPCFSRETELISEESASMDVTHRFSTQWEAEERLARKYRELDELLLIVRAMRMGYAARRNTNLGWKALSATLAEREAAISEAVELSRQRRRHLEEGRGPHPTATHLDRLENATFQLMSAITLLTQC
Where a name gives a salt, the structure may show the parent alone.
metricName: IC50

Query string: Reported IC50 for COc1ccc([C@@H]2CNC(=O)C2)cc1OC1CCCC1 (racemic) [Adeo] : what is it?
Result string: > 100 µM

Query string: What does the data say about its IC50? Entry: COc1cc(-c2ccc(=O)[nH]n2)ccc1OC(F)F
Result string: > 100 µM

Query string: Quick check: IC50 of Cc1[nH]c(=O)c(C#N)cc1-c1ccncc1 [Milrinone] ?
Result string: > 100 µM

Query string: # IC50 lookup, item CCCc1nn(C)c2c(=O)[nH]c(-c3cc(S(=O)(=O)N4CCN(C)CC4)ccc3OCC)nc12 [SILDENAFIL CITRATE]
Result string: > 1 µM
